These entries and their values trace back to patent US20030114512A1.

Target: 5-HT2 receptor (Rattus norvegicus, UniProt P14842)
Construct: A7r5 rat vascular smooth muscle cells; endogenous in cells; host or cells: A7r5 rat vascular smooth muscle cells
Sequence (P14842 whole entry): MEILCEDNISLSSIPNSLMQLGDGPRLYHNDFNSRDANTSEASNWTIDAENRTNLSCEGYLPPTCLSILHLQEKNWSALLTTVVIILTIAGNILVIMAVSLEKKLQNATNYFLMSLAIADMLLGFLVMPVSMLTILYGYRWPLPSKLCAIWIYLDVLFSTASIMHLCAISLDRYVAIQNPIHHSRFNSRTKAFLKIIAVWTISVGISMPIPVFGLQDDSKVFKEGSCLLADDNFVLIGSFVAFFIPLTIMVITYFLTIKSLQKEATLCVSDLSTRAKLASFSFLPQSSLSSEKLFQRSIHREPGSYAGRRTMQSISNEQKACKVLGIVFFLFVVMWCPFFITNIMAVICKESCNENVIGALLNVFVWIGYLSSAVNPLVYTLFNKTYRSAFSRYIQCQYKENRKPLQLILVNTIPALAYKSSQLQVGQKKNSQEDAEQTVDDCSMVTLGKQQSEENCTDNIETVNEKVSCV
Assay: 5-HT2 functional assay: phosphoinositide (PI) turnover
Format: cell-based
Settings: A7r5 cells; relative to 5-HT set at 100%; read-out: Efficacy (Emax, %) 5-HT2 functional
PARAMETER: Emax (%)
The figure you give is taken to be in %; do not add the unit.

[
  {
    "COMPOUND": "CC(N)Cn1ccc2ccc(O)cc21.O=C(O)/C=C/C(=O)O (centres unmarked) [fumarate]",
    "STUDY_SYSTEM": "5-HT2 receptor (Rattus norvegicus, UniProt P14842)",
    "PARAMETER": "Emax",
    "VALUE_OBSERVED": 86
  },
  {
    "COMPOUND": "COc1ccc2ccn(CC(C)N)c2c1.O=C(O)/C=C/C(=O)O (centres unmarked) [fumarate]",
    "STUDY_SYSTEM": "5-HT2 receptor (Rattus norvegicus, UniProt P14842)",
    "PARAMETER": "Emax",
    "VALUE_OBSERVED": 88
  },
  {
    "COMPOUND": "CC(N)Cc1c[nH]c2ccc(O)cc12.O=C(O)/C=C\\C(=O)O (stereo not drawn) [α-Methyl 5-hydroxytryptamine maleate, 3-(2-aminopropyl)-1H-indol-5-ol]",
    "STUDY_SYSTEM": "5-HT2 receptor (Rattus norvegicus, UniProt P14842)",
    "PARAMETER": "Emax",
    "VALUE_OBSERVED": 104
  },
  {
    "COMPOUND": "COc1ccc2[nH]cc(CC(C)N)c2c1.O=C(O)/C=C/C(=O)O (stereo not drawn) [α-Methyl 5-methoxytryptamine fumarate]",
    "STUDY_SYSTEM": "5-HT2 receptor (Rattus norvegicus, UniProt P14842)",
    "PARAMETER": "Emax",
    "VALUE_OBSERVED": 81
  }
]

Shift focus to the following entry.
Qu. Could you share which Emax value was measured for CC(N)Cn1ccc2cc(Cl)ccc21.O=C(O)/C=C/C(=O)O (centres unmarked) [fumarate] ?
Ans. 104
